- tgt: HLA-DRB1*09:01 (Homo sapiens, UniProt P01903+P01911, A100R/A103E/D57H/D86V/F55Y/F60I/F76Y/I96F/K127E/L162R/M171V/P40D/Q125H/Q99R/R33Q/R42F/S133A/S66N/T210M/V115G/W38K/Y107V/Y59G/Y89S)
- Construct: HLA-DR heterodimers were purified from homozygous Epstein–Barr virus B-lymphoblastoid cell lines; host or cells: homozygous EBV B-lymphoblastoid cell line
- experiment notes: Peptide/HLA-DR binding, competitive ELISA
- test parameters: ratio IC50 of peptide / IC50 of reference peptide CTP 427–441, lower = higher affinity, ratio 20 or less high, 20–100 moderate, three independent experiments
Reported values of Relative binding affinity of peptide to HLA-DR molecules DRB1*0901 for individual entries
measurement type: Relative binding affinity of peptide to HLA-DR molecules DRB1*0901

INSERT INTO measurements (substance, reading) VALUES
  ('2: SseB overlapping library peptide, residues 11–30 (QNPIVFKNSFGVSNADTGSQ) [Peptide 2]', 10),
  ('3: SseB overlapping library peptide, residues 21–40 (GVSNADTGSQDDLSQQNPFA) [Peptide 3]', '> 689'),
  ('7: SseB overlapping library peptide, residues 61–80 (FIEVQKNAERARNTQEKSNE) [Peptide 7]', '> 689'),
  ('16: SseB overlapping library peptide, residues 151–170 (NTDLMSQGQITIQKMSQELN) [Peptide 16]', '> 689'),
  ('14: SseB overlapping library peptide, residues 131–150 (KLDKGGLQAIKAALDNDANR) [Peptide 14]', 50),
  ('5: SseB overlapping library peptide, residues 41–60 (EGYGVLLILLMVIQAIANNK) [Peptide 5]', '> 689'),
  ('13: SseB overlapping library peptide, residues 121–140 (DYMAKYGDHGKLDKGGLQAI) [Peptide 13]', '> 689');
